Provenance of the data: patent US8680137B2

# Tested on: H292 non small cell lung cancer
# PROTOCOL_DETAILS: Cancer cell proliferation, H292
# Type: cell-based
# SETTINGS: Homo sapiens, NCI-H292, H292, mean of Exp 1 and Exp 2; read-out: Mean IC50
MEASURED_ENDPOINT: IC50 (µM)
Report the figure in µM without appending any unit label.

Asked: Looking for the measured IC50 of COc1cc2c(cc1OC)C(c1sc3ccccc3c1Cl)=NCC2 , can you help?
Given back: 17.2

----------
Exercise: state measured Verification Ratio for each of the compounds provided.
# TARGET_OR_TEST_SYSTEM: murine TRPM7 (Mus musculus, UniProt Q923J1)
# Sequence (Q923J1 whole entry): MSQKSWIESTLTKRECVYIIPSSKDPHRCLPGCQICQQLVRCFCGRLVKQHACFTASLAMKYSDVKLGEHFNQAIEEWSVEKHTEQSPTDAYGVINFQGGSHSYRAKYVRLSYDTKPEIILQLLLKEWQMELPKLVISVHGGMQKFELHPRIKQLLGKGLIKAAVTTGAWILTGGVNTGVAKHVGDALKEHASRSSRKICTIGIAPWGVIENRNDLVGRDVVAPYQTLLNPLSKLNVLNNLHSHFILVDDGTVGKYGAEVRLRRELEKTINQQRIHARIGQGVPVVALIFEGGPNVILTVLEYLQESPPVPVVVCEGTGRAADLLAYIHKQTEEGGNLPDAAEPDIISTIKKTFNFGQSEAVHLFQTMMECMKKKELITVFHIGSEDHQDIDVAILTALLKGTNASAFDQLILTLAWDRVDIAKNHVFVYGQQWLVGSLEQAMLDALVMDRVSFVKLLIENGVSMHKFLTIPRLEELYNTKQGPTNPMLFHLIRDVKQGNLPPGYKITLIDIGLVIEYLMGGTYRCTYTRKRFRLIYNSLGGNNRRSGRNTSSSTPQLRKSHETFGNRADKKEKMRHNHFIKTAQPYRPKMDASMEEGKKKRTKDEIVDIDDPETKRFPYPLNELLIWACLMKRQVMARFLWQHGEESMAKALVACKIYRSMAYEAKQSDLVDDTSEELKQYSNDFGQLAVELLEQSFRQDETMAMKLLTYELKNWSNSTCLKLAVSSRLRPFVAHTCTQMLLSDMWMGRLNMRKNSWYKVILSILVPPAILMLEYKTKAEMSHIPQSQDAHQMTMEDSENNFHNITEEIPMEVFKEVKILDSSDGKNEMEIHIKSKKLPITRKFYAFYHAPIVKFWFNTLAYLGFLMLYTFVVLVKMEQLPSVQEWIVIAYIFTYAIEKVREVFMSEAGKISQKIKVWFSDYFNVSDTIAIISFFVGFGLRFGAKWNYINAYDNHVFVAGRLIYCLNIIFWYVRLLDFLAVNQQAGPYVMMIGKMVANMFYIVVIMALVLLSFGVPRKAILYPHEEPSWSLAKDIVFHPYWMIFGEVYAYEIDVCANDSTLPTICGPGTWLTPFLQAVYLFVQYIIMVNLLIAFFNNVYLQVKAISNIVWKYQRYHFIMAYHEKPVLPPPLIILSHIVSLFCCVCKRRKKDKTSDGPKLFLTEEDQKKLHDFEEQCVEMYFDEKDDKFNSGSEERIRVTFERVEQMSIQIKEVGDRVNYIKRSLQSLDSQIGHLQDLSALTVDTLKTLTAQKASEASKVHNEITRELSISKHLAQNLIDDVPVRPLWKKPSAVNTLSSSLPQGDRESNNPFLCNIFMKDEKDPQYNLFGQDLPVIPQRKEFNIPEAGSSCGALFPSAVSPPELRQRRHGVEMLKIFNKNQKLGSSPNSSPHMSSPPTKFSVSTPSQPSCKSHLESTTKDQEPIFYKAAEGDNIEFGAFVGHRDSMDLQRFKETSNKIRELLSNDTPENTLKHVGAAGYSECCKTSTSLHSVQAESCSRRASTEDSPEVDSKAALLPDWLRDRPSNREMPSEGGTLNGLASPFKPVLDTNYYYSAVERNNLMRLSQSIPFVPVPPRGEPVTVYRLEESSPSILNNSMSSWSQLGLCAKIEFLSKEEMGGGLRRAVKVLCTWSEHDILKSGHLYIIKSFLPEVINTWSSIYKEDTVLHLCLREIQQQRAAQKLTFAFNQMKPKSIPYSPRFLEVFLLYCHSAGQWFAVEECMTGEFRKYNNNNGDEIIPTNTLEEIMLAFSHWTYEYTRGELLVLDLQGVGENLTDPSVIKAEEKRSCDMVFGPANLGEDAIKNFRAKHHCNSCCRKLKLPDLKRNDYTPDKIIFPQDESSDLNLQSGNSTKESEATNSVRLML
# PROTOCOL_DETAILS: TRPM7-mediated cell death screen, Tet-induced Flag-murine TRPM7 HEK293 Trex cells in Mg2+-deficient HBSS, PI fluorescence
# SETTINGS: LOPAC library, manual replication

Asked: Looking for the measured Verification Ratio of Ic1ccccc1CNC1C2CCN(CC2)C1C(c1ccccc1)c1ccccc1.O=C(O)C(=O)O [L-703,606 oxalate] , can you help?
Given back: 0.373

Asked: CCn1cnc2c(Nc3cccc(Cl)c3)nc(N[C@@H]3CCCC[C@@H]3N)nc21.Cl [CGP-74514A hydrochloride] ?
Given back: 0.6543

Asked: C[C@@]12C(=O)OC(=O)[C@]1(C)[C@H]1CC[C@@H]2O1 ?
Given back: 0.7724

Asked: O=C1c2c(O)ccc(O)c2C(=O)c2c(NCCNCCO)ccc(NCCNCCO)c21 ?
Given back: 0.25
